# TARGET_OR_SYSTEM: Cav1.2/β3/α2δ (Homo sapiens)
# Construct: expressed in transfected cells; host or cells: Xenopus laevis oocytes (cRNA injection, Cav1.2:β3:α2δ 2:1:1 by weight)
# Sequence (Q13936 1-2138 isoform Q13936-20): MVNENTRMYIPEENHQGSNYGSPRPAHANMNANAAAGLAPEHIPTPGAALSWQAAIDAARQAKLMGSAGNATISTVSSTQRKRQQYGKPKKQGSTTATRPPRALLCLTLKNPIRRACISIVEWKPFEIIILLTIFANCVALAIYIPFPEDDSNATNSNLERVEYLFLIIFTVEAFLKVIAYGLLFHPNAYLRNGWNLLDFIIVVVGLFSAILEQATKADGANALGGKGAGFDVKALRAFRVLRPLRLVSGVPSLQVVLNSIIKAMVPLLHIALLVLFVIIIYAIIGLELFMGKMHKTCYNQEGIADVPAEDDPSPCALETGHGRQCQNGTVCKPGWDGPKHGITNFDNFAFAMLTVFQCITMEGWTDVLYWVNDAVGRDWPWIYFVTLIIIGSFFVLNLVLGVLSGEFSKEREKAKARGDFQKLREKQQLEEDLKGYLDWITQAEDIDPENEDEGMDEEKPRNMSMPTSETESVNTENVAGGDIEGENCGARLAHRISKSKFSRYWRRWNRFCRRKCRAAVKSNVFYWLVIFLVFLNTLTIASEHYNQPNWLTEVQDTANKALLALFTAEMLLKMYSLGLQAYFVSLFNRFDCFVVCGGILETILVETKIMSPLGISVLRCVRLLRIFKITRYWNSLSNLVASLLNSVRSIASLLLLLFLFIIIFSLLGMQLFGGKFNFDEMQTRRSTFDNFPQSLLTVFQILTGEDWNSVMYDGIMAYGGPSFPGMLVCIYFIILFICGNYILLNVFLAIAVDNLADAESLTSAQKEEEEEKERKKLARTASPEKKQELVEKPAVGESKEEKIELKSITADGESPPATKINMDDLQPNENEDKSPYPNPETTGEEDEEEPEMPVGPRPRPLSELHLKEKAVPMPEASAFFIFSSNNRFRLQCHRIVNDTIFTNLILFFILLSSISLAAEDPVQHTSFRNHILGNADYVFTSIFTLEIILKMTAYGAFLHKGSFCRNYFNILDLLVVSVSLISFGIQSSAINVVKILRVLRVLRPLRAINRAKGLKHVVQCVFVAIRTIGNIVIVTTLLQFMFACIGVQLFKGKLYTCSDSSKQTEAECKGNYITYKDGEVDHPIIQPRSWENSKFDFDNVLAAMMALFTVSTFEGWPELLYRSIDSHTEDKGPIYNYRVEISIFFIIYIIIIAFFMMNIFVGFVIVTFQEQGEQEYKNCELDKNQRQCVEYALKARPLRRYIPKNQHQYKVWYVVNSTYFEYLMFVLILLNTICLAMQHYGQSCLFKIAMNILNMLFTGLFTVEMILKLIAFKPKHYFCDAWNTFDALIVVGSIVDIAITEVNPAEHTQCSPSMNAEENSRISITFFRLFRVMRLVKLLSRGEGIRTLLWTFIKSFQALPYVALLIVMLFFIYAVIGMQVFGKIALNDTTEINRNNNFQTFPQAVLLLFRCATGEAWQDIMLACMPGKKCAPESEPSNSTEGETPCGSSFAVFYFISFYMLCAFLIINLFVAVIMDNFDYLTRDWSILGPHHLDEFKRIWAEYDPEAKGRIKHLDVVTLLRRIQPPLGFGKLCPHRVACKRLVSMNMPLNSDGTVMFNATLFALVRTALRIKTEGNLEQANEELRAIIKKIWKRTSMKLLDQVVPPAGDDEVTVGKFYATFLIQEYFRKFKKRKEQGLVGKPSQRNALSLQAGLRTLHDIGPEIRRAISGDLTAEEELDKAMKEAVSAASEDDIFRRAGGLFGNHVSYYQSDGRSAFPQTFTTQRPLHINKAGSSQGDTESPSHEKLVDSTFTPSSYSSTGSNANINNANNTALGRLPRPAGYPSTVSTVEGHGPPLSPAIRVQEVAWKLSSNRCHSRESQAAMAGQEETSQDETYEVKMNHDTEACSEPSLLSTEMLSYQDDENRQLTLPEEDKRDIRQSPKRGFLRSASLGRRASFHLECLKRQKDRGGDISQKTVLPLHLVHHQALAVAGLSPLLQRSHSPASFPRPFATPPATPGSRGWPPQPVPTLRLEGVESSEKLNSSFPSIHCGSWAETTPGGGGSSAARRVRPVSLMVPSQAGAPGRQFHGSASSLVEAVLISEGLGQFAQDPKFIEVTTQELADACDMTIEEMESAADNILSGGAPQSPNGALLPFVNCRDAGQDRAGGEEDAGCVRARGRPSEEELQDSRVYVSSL
# Sequence (P54286 whole entry partner): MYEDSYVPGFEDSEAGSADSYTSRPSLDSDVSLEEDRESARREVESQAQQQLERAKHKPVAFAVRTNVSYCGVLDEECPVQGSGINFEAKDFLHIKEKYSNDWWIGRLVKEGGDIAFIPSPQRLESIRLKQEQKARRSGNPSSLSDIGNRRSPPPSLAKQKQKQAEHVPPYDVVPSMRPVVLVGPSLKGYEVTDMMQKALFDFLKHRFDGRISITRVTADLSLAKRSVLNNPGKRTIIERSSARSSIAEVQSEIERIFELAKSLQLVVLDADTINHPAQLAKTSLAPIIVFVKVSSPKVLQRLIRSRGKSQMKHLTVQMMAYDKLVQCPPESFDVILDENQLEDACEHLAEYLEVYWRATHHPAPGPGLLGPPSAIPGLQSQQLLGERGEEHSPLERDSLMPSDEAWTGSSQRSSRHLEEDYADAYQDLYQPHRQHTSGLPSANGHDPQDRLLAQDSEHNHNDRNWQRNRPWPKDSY
# Sequence (P13806 27-960 partner): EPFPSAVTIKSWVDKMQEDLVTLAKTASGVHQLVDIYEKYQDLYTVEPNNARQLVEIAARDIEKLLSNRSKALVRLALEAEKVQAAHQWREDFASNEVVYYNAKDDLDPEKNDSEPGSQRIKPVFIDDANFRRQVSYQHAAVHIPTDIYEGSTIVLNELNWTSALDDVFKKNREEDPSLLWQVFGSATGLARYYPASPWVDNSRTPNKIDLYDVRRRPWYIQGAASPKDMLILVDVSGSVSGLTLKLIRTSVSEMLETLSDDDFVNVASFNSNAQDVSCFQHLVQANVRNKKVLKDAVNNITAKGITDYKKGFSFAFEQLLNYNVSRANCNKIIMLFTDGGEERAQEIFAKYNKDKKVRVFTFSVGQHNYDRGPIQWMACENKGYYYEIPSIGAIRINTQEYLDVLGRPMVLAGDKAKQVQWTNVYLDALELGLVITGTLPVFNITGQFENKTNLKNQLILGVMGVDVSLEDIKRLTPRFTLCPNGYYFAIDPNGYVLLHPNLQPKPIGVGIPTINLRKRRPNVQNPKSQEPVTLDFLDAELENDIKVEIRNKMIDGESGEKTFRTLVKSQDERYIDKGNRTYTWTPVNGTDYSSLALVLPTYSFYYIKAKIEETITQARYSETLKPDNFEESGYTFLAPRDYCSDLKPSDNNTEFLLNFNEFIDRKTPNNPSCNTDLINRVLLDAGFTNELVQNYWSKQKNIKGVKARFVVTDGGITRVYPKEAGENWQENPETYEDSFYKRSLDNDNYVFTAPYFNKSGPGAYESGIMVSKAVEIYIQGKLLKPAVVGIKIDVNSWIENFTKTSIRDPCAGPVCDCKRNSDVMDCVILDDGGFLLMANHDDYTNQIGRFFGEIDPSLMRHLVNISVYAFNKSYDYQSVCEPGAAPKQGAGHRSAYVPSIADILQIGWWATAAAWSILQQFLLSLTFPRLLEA
# Sequence (P13806 961-1106 partner): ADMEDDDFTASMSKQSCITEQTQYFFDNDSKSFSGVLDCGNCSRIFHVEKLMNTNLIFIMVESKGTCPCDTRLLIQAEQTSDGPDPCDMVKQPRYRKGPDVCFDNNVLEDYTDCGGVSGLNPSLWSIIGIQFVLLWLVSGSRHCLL
# ASSAY_DETAILS: Two-electrode voltage clamp of Cav1.2/β3/α2δ expressed in Xenopus oocytes (Ba2+ as charge carrier)
# Format: cell-based
# REPORTED_CONDITIONS: 0.2 μM; relative current at 0 mV
In this section, each of the compounds is paired with its reported ICa I/I0.

These recorded examples may help you get a feel for the data.
CCCCC/C=C\C/C=C\CCCCCCCC(=O)NCC(=O)O [Lin-glycine] ... 0.9 ± 0.1
CCCCC/C=C\C/C=C\CCCCCCCC(=O)NCCS(=O)(=O)O [Lin-taurine, Linoleoyl taurine] ... 1.0 ± 0.02
CCCCC/C=C\C/C=C\CC/C=C\CCCC(=O)NCC(=O)O [Pin-glycine] ... 0.7 ± 0.1
CCCCC/C=C\C/C=C\CC/C=C\CCCC(=O)NCCS(=O)(=O)O [Pin-taurine] ... 0.7 ± 0.1
CC/C=C\C/C=C\C/C=C\C/C=C\C/C=C\C/C=C\CCC(=O)NCC(=O)O [DHA-glycine, docosahexaenoyl glycine] ... 0.9 ± 0.1
CCCCC/C=C\C/C=C\C/C=C\C/C=C\CCCC(=O)NCCS(=O)(=O)O [N-AT, N-arachidonoyl taurine] ... 0.9 ± 0.1

# next compound below
ICa I/I0 for CC/C=C\C/C=C\C/C=C\C/C=C\C/C=C\C/C=C\CCC(=O)NCCS(=O)(=O)O [DHA-taurine] ?
0.9 ± 0.04

Data origin: paper PMC7159882
